B1: library; a variant is named by its letters at X, in order (parent)
chain: MNIQIGELAKRTACPVVTIRFYEQEGLLPPPGRSRGNFRLYGEEHVERLQFIRHCRSLDMPLSXVRTLLSYRKRPDQDCGEVXMLLDEHXRQVESRIGALLELXHXLVELREACSGARPAQSCGILQGLSDCVCDTRGTTAHXSD

# Variants of: B1
# assay-method-text: sfGFP reporter fluorescence (15 h) (µM FITC); higher = higher leak
# run-parameters: library round: Round 3b; ligand: none
assay-endpoint: sfGFP reporter fluorescence
// response body must contain only the number

sequence	sfGFP reporter fluorescence
MNIQIGELAKRTACPVVTIRFYEQEGLLPPPGRSRGNFRLYGEEHVERLQFIRHCRSLDMPLSKVRTLLSYRKRPDQDCGEVNMLLDEHARQVESRIGALLELVHHLVELREACSGARPAQSCGILQGLSDCVCDTRGTTAHRSD [KNAVHR]	0.0557
MNIQIGELAKRTACPVVTIRFYEQEGLLPPPGRSRGNFRLYGEEHVERLQFIRHCRSLDMPLSKVRTLLSYRKRPDQDCGEVIMLLDEHARQVESRIGALLELVHELVELREACSGARPAQSCGILQGLSDCVCDTRGTTAHRSD [KIAVER]	0.0626
MNIQIGELAKRTACPVVTIRFYEQEGLLPPPGRSRGNFRLYGEEHVERLQFIRHCRSLDMPLSKVRTLLSYRKRPDQDCGEVNMLLDEHIRQVESRIGALLELVHELVELREACSGARPAQSCGILQGLSDCVCDTRGTTAHTSD [KNIVET]	0.112
MNIQIGELAKRTACPVVTIRFYEQEGLLPPPGRSRGNFRLYGEEHVERLQFIRHCRSLDMPLSKVRTLLSYRKRPDQDCGEVFMLLDEHARQVESRIGALLELVHALVELREACSGARPAQSCGILQGLSDCVCDTRGTTAHRSD [KFAVAR]	0.0482
MNIQIGELAKRTACPVVTIRFYEQEGLLPPPGRSRGNFRLYGEEHVERLQFIRHCRSLDMPLSDVRTLLSYRKRPDQDCGEVIMLLDEHIRQVESRIGALLELTHELVELREACSGARPAQSCGILQGLSDCVCDTRGTTAHTSD [DIITET]	0.0436

What does the record list as sfGFP reporter fluorescence for MNIQIGELAKRTACPVVTIRFYEQEGLLPPPGRSRGNFRLYGEEHVERLQFIRHCRSLDMPLSKVRTLLSYRKRPDQDCGEVIMLLDEHARQVESRIGALLELTHHLVELREACSGARPAQSCGILQGLSDCVCDTRGTTAHRSD [KIATHR] ?
0.0655

Param item = MNIQIGELAKRTACPVVTIRFYEQEGLLPPPGRSRGNFRLYGEEHVERLQFIRHCRSLDMPLSDVRTLLSYRKRPDQDCGEVNMLLDEHARQVESRIGALLELTHALVELREACSGARPAQSCGILQGLSDCVCDTRGTTAHRSD [DNATAR] ; retrieve measured sfGFP reporter fluorescence.
0.0439

The measured values listed here are drawn from the supplement of paper PMC12783771.
